# method-summary: growth inhibition of WT strain, primary screen, mitochondrial fusion inhibitor project, WT and mutant strains, chemical genetic (AID 1362)
# test-settings: mitochondrial fusion phenotypic screen, WT strain, growth inhibition; at 10 µM; active compounds read high
Out of some 190,000 compounds screened, about 4,000 (2.1%) were called active. The list comes from a sample in which actives are over-represented; it also holds close analogues and randomly drawn compounds.
parameter: inhibition (%)
Respond with the bare value in %.

(Q) Reported inhibition for Cc1cc(C)c2[nH]c(=O)c(CN(Cc3ccccc3)C(=S)NCCCN(C)C)cc2c1 : what is it?
(A) -2.4

(Q) # query: inhibition of entry CCCCCC(=O)Nc1ccc(C(=O)N/N=C/c2ccc([N+](=O)[O-])cc2)cc1
(A) -17

(Q) Name the reported inhibition value associated with the molecule Cc1ccccc1NCC(=O)N/N=C\c1ccc([N+](=O)[O-])s1
(A) 66.5

(Q) What does the record list as inhibition for CN1CCN(S(=O)(=O)c2cccc(C(=O)N3CCc4ccccc43)c2)CC1 ?
(A) -3.09

(Q) Find the recorded inhibition belonging to Cc1cccc(/C=N/NC(=O)CNc2cccc3ccccc23)n1 and report it.
(A) 18.4

(Q) Given COc1ccc(NC(=O)Nc2ccc3nsnc3c2)cc1 , state its recorded inhibition.
(A) 23.1

(Q) So what's the measured inhibition for this one? CCOc1ccc(NC(=O)CCC(=O)n2nc(C)cc2C)cc1
(A) -6.72
